molecular target: human CB2 receptors (Homo sapiens, UniProt P34972); construct: expressed in transfected cells; host or cells: HEK293; experiment: Human CB2 radioligand binding assay ([3H]CP-55,940 competition)
Sequence (P34972 whole entry): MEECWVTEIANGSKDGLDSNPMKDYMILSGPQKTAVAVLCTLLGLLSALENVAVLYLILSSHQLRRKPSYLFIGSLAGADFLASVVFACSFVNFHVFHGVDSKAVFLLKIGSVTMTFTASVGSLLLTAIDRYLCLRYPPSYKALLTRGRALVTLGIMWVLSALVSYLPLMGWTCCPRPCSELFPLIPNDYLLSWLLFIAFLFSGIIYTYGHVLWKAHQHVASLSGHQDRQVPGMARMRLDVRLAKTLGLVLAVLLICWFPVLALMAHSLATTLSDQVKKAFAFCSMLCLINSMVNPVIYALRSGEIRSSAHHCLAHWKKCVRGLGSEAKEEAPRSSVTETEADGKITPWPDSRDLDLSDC

{"compound": "CN1CC[C@H](Oc2ccc(C(F)(F)F)cc2C(=O)/N=c2\\sc(C(C)(C)C)nn2C[C@H]2CCCO2)C1 [Example 97]", "Ki": "0.063 µM"}
{"compound": "Cn1c(C(C)(C)C)c/c(=N\\C(=O)c2cccc(C#N)c2)n1C[C@H]1CCCO1 [Example 130]", "Ki": "0.072 µM"}
{"compound": "Cn1c(C(C)(C)C)c/c(=N\\C(=O)c2cc(N)cc(C(F)(F)F)c2)n1C[C@H]1CCCO1 [Example 107]", "Ki": "0.011 µM"}
{"compound": "Cn1c(C(C)(C)C)c/c(=N\\C(=O)c2cc(Cl)ccc2F)n1C[C@H]1CCCO1 [Example 116]", "Ki": "0.026 µM"}
{"compound": "COc1ccc(C(F)(F)F)cc1C(=O)/N=c1\\oc(C(C)(C)C)cn1C[C@H]1CCCO1 [Example 66]", "Ki": "0.0021 µM"}
{"compound": "COCCCc1ccc(C(F)(F)F)cc1C(=O)/N=c1\\cc(C(C)(C)C)n(C)n1C[C@H]1CCCO1 [Example 90]", "Ki": "0.0035 µM"}
{"compound": "C[C@@H](F)COc1ccc(C(F)(F)F)cc1C(=O)/N=c1\\cc(C(C)(C)C)n(C)n1C[C@H]1CCCO1 [Example 41]", "Ki": "0.132 µM"}
{"compound": "COc1ccc(Cl)cc1C(=O)/N=c1\\sc(C2CC2)nn1CC1CCCO1 (centres unmarked) [Example 2]", "Ki": "0.017 µM"}
